Would you kindly list IC50 for each of these compounds?
Test system: MDA-MB-231
method: MTS cell proliferation assay, MDA-MB-231
Format: cell-based, human
test conditions: Homo sapiens, MDA-MB-231, 72 h, read-out: IC50 MDA-MB-231 (Table 4)
Procedure: Cancer cells (breast cancer cell lines MCF-7, MDA-MB-361, SKBR3 and MDA-MB-231, pancreatic cancer cell lines AsPC-1. BxPC3 and Panc-1) were seeded in 96-well plates at a density of 1000-2000 cells/well and treated with DMSO, 0.01, 0.1, 1, 5, 10, and […] of STAT3 individual inhibitors for 72 hrs. […] Absorbance of all wells was determined by measuring OD at 550 nm after 1 hr incubation at 37° C. on a 96-well iMark™ Microplate Absorbance Reader (BioRad, Hercules, Calif.). […]

compound	recorded metric	result
O=C(Nc1ccc2c(c1)S(=O)(=O)C=C2)c1cc(-c2ccccc2)nc2ccccc12	IC50	290 nM

What the record says about O=C(Nc1ccc([N+](=O)[O-])cc1Cl)c1cc(Cl)ccc1O [niclosamide, reference compound] : IC50 is 790 nM
